// IC50 lookup, one value per entry
biological target: MMP-2 (Homo sapiens, UniProt P08253); assay: Automated MMP Profiling Assay, MMP-2 fluorogenic; type: biochemical; details: 96-well automated, P218; read-out: MMP-2 Fluorogenic IC50 (profiling)
Sequence (P08253 110-660): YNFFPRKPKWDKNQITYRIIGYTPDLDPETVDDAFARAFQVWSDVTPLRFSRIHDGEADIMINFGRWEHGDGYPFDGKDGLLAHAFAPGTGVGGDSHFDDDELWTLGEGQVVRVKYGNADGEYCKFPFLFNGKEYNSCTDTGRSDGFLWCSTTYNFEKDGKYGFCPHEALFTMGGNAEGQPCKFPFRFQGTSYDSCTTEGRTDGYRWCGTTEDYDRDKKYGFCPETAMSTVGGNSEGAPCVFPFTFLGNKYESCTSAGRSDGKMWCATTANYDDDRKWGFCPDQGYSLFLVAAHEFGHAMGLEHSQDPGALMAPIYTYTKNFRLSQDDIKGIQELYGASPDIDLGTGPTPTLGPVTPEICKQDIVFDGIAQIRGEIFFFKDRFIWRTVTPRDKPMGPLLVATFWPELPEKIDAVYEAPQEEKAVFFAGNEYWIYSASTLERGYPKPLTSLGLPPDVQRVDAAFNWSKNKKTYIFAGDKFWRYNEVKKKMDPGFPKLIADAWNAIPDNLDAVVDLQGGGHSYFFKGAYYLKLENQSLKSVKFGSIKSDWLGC
observable: IC50 (nM)

- molecule: "C=CCOc1ccc(-c2ccc(C(=O)CC(CCCc3ccccc3)C(=O)O)cc2)cc1 (centres unmarked)"
  observable: "IC50"
  readout unit: "nM"
  value observed: 26
- molecule: "O=C(O)[C@H]1[C@H](CN2C(=O)c3cccc([N+](=O)[O-])c3C2=O)CC[C@@H]1C(=O)c1ccc(-c2ccc(Cl)cc2)cc1 (relative stereo)"
  observable: "IC50"
  readout unit: "nM"
  value observed: 4.26
- molecule: "CCCCCOc1ccc(-c2ccc(C(=O)CC(CCCc3ccccc3)C(=O)O)cc2)cc1 (centres unmarked)"
  observable: "IC50"
  readout unit: "nM"
  value observed: 32
- molecule: "O=C(CC(CCN1C(=O)c2cc(Cl)c(Cl)cc2C1=O)C(=O)O)c1ccc(-c2ccc(Cl)cc2)cc1 (centres unmarked)"
  observable: "IC50"
  readout unit: "nM"
  value observed: 34
- molecule: "COC/C=C\\c1ccc(-c2ccc(C(=O)CC(CCCc3ccccc3)C(=O)O)cc2)cc1 (centres unmarked)"
  observable: "IC50"
  readout unit: "nM"
  value observed: 76
- molecule: "COC/C=C/c1ccc(-c2ccc(C(=O)CC(CCCc3ccccc3)C(=O)O)cc2)cc1 (centres unmarked)"
  observable: "IC50"
  readout unit: "nM"
  value observed: 20
- molecule: "O=C(CC(CCCc1ccccc1)C(=O)O)c1ccc(-c2ccc(OCc3ccccn3)cc2)cc1 (centres unmarked)"
  observable: "IC50"
  readout unit: "nM"
  value observed: 38
- molecule: "O=C(C[C@H](CCN1C(=O)c2ccccc2C1=O)C(=O)O)c1ccc(-c2ccc(Cl)cc2)cc1"
  observable: "IC50"
  readout unit: "nM"
  value observed: 0.91
- molecule: "COC(=O)c1ccccc1S[C@@H]1CC[C@@H](C(=O)c2ccc(-c3ccc(Cl)cc3)cc2)[C@@H]1C(=O)O"
  observable: "IC50"
  readout unit: "nM"
  value observed: 2500
- molecule: "COCCOCOC[C@@H]1CC[C@H](C(=O)c2ccc(-c3ccc(Cl)cc3)cc2)[C@H]1C(=O)O (relative stereo)"
  observable: "IC50"
  readout unit: "nM"
  value observed: 9.1
- molecule: "CC(=O)Nc1ccc(-c2ccc(C(=O)CC(CCc3ccccc3)C(=O)O)cc2)cc1 (centres unmarked)"
  observable: "IC50"
  readout unit: "nM"
  value observed: 323
- molecule: "O=C(O)[C@H]1[C@H](CSc2nc3ccccc3o2)CC[C@@H]1C(=O)c1ccc(-c2ccc(Cl)cc2)cc1 (relative stereo)"
  observable: "IC50"
  readout unit: "nM"
  value observed: 78
- molecule: "O=C(O)[C@H]1[C@H](CN2C(=O)c3ccccc3C2=O)CC[C@@H]1C(=O)c1ccc(-c2ccc(Cl)cc2)cc1 [Example 361]"
  observable: "IC50"
  readout unit: "nM"
  value observed: 0.81
- molecule: "O=C(CC(CCN1C(=O)c2ccc(O)cc2C1=O)C(=O)O)c1ccc(-c2ccc(Cl)cc2)cc1 (centres unmarked)"
  observable: "IC50"
  readout unit: "nM"
  value observed: 5.1
- molecule: "COc1ccc2c(c1)C(=O)N(CCC(CC(=O)c1ccc(-c3ccc(Cl)cc3)cc1)C(=O)O)C2=O (centres unmarked)"
  observable: "IC50"
  readout unit: "nM"
  value observed: 14
- molecule: "CCCCCOc1ccc(-c2ccc(C(=O)CC(CCc3cccc(I)c3)C(=O)O)cc2)cc1 (centres unmarked)"
  observable: "IC50"
  readout unit: "nM"
  value observed: 22
- molecule: "O=C(NC[C@@H]1CC[C@H](C(=O)c2ccc(-c3ccc(Cl)cc3)cc2)[C@H]1C(=O)O)c1ccccc1 (relative stereo)"
  observable: "IC50"
  readout unit: "nM"
  value observed: 8.7
